Entries and their measured PBM binding z-score follow.
# Tested on: PPARa:RXRa (NR concentration 270 nM, RXRa partner concentration 90 nM)
# MEASUREMENT PROTOCOL: PBM binding z-score (relative to random genomic background probes); higher = stronger binding; sequences stand for … in GC…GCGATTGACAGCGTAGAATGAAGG
Output: the number by itself.

Query block: Entry TCTGCTAGGTCAACGTTGGTCAGCTAATCTGCTA needs its PBM binding z-score filled in; supply it.
Result block: 3.2

Query block: Entry CCTACTGGGCCAAAAAGGTCATTGATGCCGATAA needs its PBM binding z-score filled in; supply it.
Result block: 4.51

Query block: Entry CCTTACGGGTCACGAGGTTGTAGCACGACGAGCG needs its PBM binding z-score filled in; supply it.
Result block: 5.73

Query block: Entry CAAACCAGGTCAAGAGGTCAAAGTCCGCTTCCCG needs its PBM binding z-score filled in; supply it.
Result block: 6.68

Query block: Entry CGAACGAGGTCAAAGGACAGTGAAAGGCGACGTA needs its PBM binding z-score filled in; supply it.
Result block: 6.37

Query block: Entry ATCGAAAGGTCGAAGGTGAGCATACCCACCCGAA needs its PBM binding z-score filled in; supply it.
Result block: 5.01

Query block: Entry ATATGTAGGTTAAGCGTCATTCAGGTTGGTTCGC needs its PBM binding z-score filled in; supply it.
Result block: 4.16

Query block: Entry GGAACGAGGTCAAGTTGATAGCAGAGTTTGATGG needs its PBM binding z-score filled in; supply it.
Result block: 6.38

Query block: Entry CCTACTGGGCCGTTCAGAGGTCATTGATCATATG needs its PBM binding z-score filled in; supply it.
Result block: 3.56

Query block: Entry ACTAGTTGGTCAGCTGAGGTCACACCCAATTCGG needs its PBM binding z-score filled in; supply it.
Result block: 3.46

----------
# Tested on: PPARg:RXRa IVT, anti-PPARg (NR concentration 270 nM, RXRa partner concentration 90 nM)
# MEASUREMENT PROTOCOL: PBM binding z-score (relative to random genomic background probes); higher = stronger binding; sequences stand for … in GC…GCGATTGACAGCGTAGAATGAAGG
Quick rule: PBM binding z-score of at least 5 means class 1, below that means class 0.

{"CONSTRUCT SEQUENCE": "AATACAAGGTCATCGTAGGCCAGAGTACGCACAG", "ASSAY SYSTEM": "PPARg:RXRa IVT, anti-PPARg (NR concentration 270 nM, RXRa partner concentration 90 nM)", "CLASS ASSIGNMENT": "class 0"}

Query block: Could you please find out whether CGTCCAAGGTCAAAGGTCAATGAAGAGATGACGG has PBM binding z-score that meets 5 or exceeds it?
Result block: class 1

Query block: Could you please find out whether ATATGTAGGTTAGGGGTCATTCAGGTTGGTTCGC has PBM binding z-score that meets 5 or exceeds it?
Result block: class 1

Query block: Could you please find out whether TTGCCAAGGTGAAAGGTCGTTGATGCACGCCTTG has PBM binding z-score that meets 5 or exceeds it?
Result block: class 0

Query block: Could you please find out whether TATACGGGGTCAAAGGCCAGAGTACGAATGTCGA has PBM binding z-score that meets 5 or exceeds it?
Result block: class 1

Query block: Could you please find out whether ATCGAAAGGTCAACGAGGTGAGTATACACCGTTT has PBM binding z-score that meets 5 or exceeds it?
Result block: class 1
